Values from paper PMC9721025

test name: Pharmacokinetics in beagles, multiple-dose regimen (once per day for 7 days) of TRQI or TRQC, plasma LC-MS/MS
Type: in vivo
condition parameters: male, beagle, dog, iv, 0.5 mL/kg, TRQI 0.5 mL/kg for 7 days, beagle No. 2
Examples of compounds with documented AUC(0-inf) follow.
readout: AUC(0-inf) (ng·h/mL)

C[C@H](CCC(=O)O)[C@H]1CC[C@H]2[C@@H]3[C@H](O)C[C@@H]4C[C@H](O)CC[C@]4(C)[C@H]3CC[C@]12C : 183
O=C(O)[C@H]1O[C@@H](Oc2cc3oc(-c4ccccc4)cc(=O)c3c(O)c2O)[C@H](O)[C@@H](O)[C@@H]1O : 534
C[C@H](CCC(=O)O)[C@H]1CC[C@H]2[C@@H]3[C@@H](O)C[C@@H]4C[C@H](O)CC[C@]4(C)[C@H]3CC[C@]12C : 1860
O=C(/C=C/c1ccc(O)c(O)c1)O[C@@H]1C[C@](O)(C(=O)O)C[C@@H](O)[C@H]1O : 5.59

----------
Examples of molecules with documented AUC(0-t) follow.
test name: Pharmacokinetics in beagles, multiple-dose regimen (once per day for 7 days) of TRQI or TRQC, plasma LC-MS/MS
Format: in vivo
condition parameters: female, beagle, dog, po, 0.09 g/kg, TRQC 0.09 g/kg for 7 days, beagle No. 4, read-out: AUC0–24 h
readout: AUC(0-t) (ng·h/mL)

O=C(O)[C@H]1O[C@@H](Oc2cc3oc(-c4ccccc4)cc(=O)c3c(O)c2O)[C@H](O)[C@@H](O)[C@@H]1O : 68
O=C(/C=C/c1ccc(O)c(O)c1)O[C@@H]1C[C@](O)(C(=O)O)C[C@@H](O)[C@H]1O : 22.6
C[C@H](CCC(=O)O)[C@H]1CC[C@H]2[C@@H]3[C@@H](O)C[C@@H]4C[C@H](O)CC[C@]4(C)[C@H]3CC[C@]12C : 109000
C[C@H](CCC(=O)O)[C@H]1CC[C@H]2[C@@H]3[C@H](O)C[C@@H]4C[C@H](O)CC[C@]4(C)[C@H]3CC[C@]12C : 16700

----------
Examples of compounds with documented Cmax at 7 days follow.
test name: Pharmacokinetics in beagles, multiple-dose regimen (once per day for 7 days) of TRQI or TRQC, plasma LC-MS/MS
Assay type: in vivo
condition parameters: both sexes, beagle, dog, po, TRQC 0.09 g/kg once per day for 7 days, mean
readout: Cmax at 7 days (ng/mL)

C[C@H](CCC(=O)O)[C@H]1CC[C@H]2[C@@H]3[C@H](O)C[C@@H]4C[C@H](O)CC[C@]4(C)[C@H]3CC[C@]12C [Chenodeoxycholic acid, chenodeoxycholic acid] : 521
O=C(/C=C/c1ccc(O)c(O)c1)O[C@@H]1C[C@](O)(C(=O)O)C[C@@H](O)[C@H]1O [Chlorogenic acid, chlorogenic acid] : 3.9
O=C(O)[C@H]1O[C@@H](Oc2cc3oc(-c4ccccc4)cc(=O)c3c(O)c2O)[C@H](O)[C@@H](O)[C@@H]1O [Baicalin, baicalin] : 12.2
C[C@H](CCC(=O)O)[C@H]1CC[C@H]2[C@@H]3[C@@H](O)C[C@@H]4C[C@H](O)CC[C@]4(C)[C@H]3CC[C@]12C [Ursodeoxycholic acid, ursodeoxycholic acid] : 3400

----------
Examples of compounds with documented AUC(0-t) follow.
test name: Pharmacokinetics in beagles, multiple-dose regimen (once per day for 7 days) of TRQI or TRQC, plasma LC-MS/MS
Type: in vivo
condition parameters: male, beagle, dog, po, 0.09 g/kg, TRQC 0.09 g/kg for 7 days, beagle No. 2, read-out: AUC0–24 h
readout: AUC(0-t) (µg·h/mL)

C[C@H](CCC(=O)O)[C@H]1CC[C@H]2[C@@H]3[C@@H](O)C[C@@H]4C[C@H](O)CC[C@]4(C)[C@H]3CC[C@]12C [Ursodeoxycholic acid, ursodeoxycholic acid] : 23.9
O=C(/C=C/c1ccc(O)c(O)c1)O[C@@H]1C[C@](O)(C(=O)O)C[C@@H](O)[C@H]1O [Chlorogenic acid, chlorogenic acid] : 0.00319
C[C@H](CCC(=O)O)[C@H]1CC[C@H]2[C@@H]3[C@H](O)C[C@@H]4C[C@H](O)CC[C@]4(C)[C@H]3CC[C@]12C [Chenodeoxycholic acid, chenodeoxycholic acid] : 1.9
O=C(O)[C@H]1O[C@@H](Oc2cc3oc(-c4ccccc4)cc(=O)c3c(O)c2O)[C@H](O)[C@@H](O)[C@@H]1O [Baicalin, baicalin] : 0.149
